- System: MDA-MB-468 breast
- assay-explanation: NCI tumour cell line growth inhibition, 48 h; in the data active = GI50 below about 0.43 µM; inactive = the rest
Outcomes: true for active, false for inactive

molecule="COc1ccc(C(O)c2cc3c(N)c(C(=O)Nc4ccccc4)sc3nc2C)cc1 (stereo unspecified)" group=true
molecule=O=S(=O)(Nc1cc(F)cc(F)c1)c1ccc(-c2cnc(C3CC3)o2)cc1 group=false
molecule=O=S(=O)(Nc1ccc2ccccc2c1)N1CCCCC1 group=false
molecule="CCCCCN1C(=O)/C(=c2\\sc3n(c2=O)C2C(NN=3)N(CC)C(=O)N2CC)c2ccccc21 (stereo unspecified)" group=true
molecule=CCOc1ccccc1C(=O)/C=C/c1cc2ccccc2[nH]c1=O group=true
molecule="O=C1C=CC2(NN=C(c3ccccc3)N2c2ccccc2)c2cccc(O)c21 (stereo unspecified)" group=false
